Observed IC50, system CDK12 (Homo sapiens (Human), UniProt Q9NYV4).
I only need the number, in nM, no unit after it.

Tell me reported IC50 for C=CC(=O)N1CCC=C(c2ccc(C(C)C(=O)Nc3cc(C4CC4)[nH]n3)cc2)CC1 (stereo not shown) , tested with CDK12 (Homo sapiens (Human), UniProt Q9NYV4). 240

Tell me reported IC50 for C/C=C/C(=O)N1CCC=C(c2ccc(CC(=O)Nc3cc(C4CC4)[nH]n3)cn2)C1 , tested with CDK12 (Homo sapiens (Human), UniProt Q9NYV4). 94

Tell me reported IC50 for C#CC(=O)N1CC=C(c2ccc(CC(=O)Nc3cc(C4CC4)[nH]n3)cn2)C1 , tested with CDK12 (Homo sapiens (Human), UniProt Q9NYV4). 12

Tell me reported IC50 for C=CC(=O)N1CCCC(c2ccc(C(C)C(=O)Nc3cc(C4CC4)[nH]n3)cn2)C1 (stereo not shown) , tested with CDK12 (Homo sapiens (Human), UniProt Q9NYV4). 354
